Origin of measurements: ChEMBL document CHEMBL3046147

system: Oryza sativa; test: Phytotoxicity against two-leaf stage Oryza sativa cv. Nihonbare (rice) planted 1 cm depth measured after […]; type: organism-based; details: in vivo
Reported MTD values for the following molecules.
experimental readout: MTD (g/acre)

| smiles repr | experimental system | experimental readout | reported relation | numeric readout |
| --- | --- | --- | --- | --- |
| CC1=C(c2ccccc2Br)C(=O)N(C(C)(C)c2nc3ccccc3s2)C1 | Oryza sativa | MTD | > | 5 |
| CC1=C(c2ccccc2)C(=O)N(C(C)(C)c2nc3ccccc3n2C)C1 | Oryza sativa | MTD | = | 80 |
| CC(C)(c1nc2ccccc2s1)N1CC(C(F)(F)F)=C(c2ccccc2)C1=O | Oryza sativa | MTD | = | 5 |
| CC1=C(c2ccccc2)C(=O)N(C(C)(C)c2nc3ccccc3o2)C1 | Oryza sativa | MTD | = | 5 |
| CC1=C(c2cccc(C(F)(F)F)c2)C(=O)N(C(C)(C)c2nc3ccccc3s2)C1 | Oryza sativa | MTD | = | 20 |
| CC1=C(c2ccccc2)C(=O)N(C(C)(C)c2sc3ccccc3[n+]2[O-])C1 | Oryza sativa | MTD | = | 80 |
| CC1=C(c2ccccc2)C(=O)N(C(C)(C)c2ccc(Cl)s2)C1 | Oryza sativa | MTD | = | 10 |
| COc1ccc(C2=C(C)CN(C(C)(C)c3nc4ccccc4s3)C2=O)cc1 | Oryza sativa | MTD | = | 10 |
| CC1=C(c2cccc(Cl)c2)C(=O)N(C(C)(C)c2nc3ccccc3s2)C1 | Oryza sativa | MTD | = | 5 |
| CC1=C(c2ccc(-c3ccccc3)cc2)C(=O)N(C(C)(C)c2nc3ccccc3s2)C1 | Oryza sativa | MTD | = | 80 |

* * *

Reported MTD values for the following compounds.
test system: Oryza sativa; assay: Phytotoxicity against two-leaf stage Oryza sativa cv. Nihonbare (rice) planted 3 cm depth measured after […]; format: organism-based; conditions: in vivo
experimental readout: MTD (g/acre)

| smiles repr | unit annotation | reported relation | numeric readout |
| --- | --- | --- | --- |
| COc1ccc(C2=C(C)CN(C(C)(C)c3nc4ccccc4s3)C2=O)cc1OC | g/acre | = | 80 |
| CC1=C(c2ccccc2C(=O)O)C(=O)N(C(C)(C)c2nc3ccccc3s2)C1 | g/acre | = | 20 |
| CC1=C(c2ccccc2)C(=O)N(C(C)(C)c2ccc(Cl)s2)C1 | g/acre | = | 20 |
| COc1cccc2sc(C(C)(C)N3CC(C)=C(c4ccccc4)C3=O)nc12 | g/acre | = | 40 |
| CC1=C(c2cccc(Cl)c2)C(=O)N(C(C)(C)c2nc3ccccc3s2)C1 | g/acre | = | 10 |
| CCOc1ccc2nc(C(C)(C)N3CC(C)=C(c4ccccc4)C3=O)sc2c1 | g/acre | = | 10 |
| CC(C)(c1nc2ccccc2s1)N1CC=C(c2ccccc2)C1=O | g/acre | < | 20 |
| COc1ccc(OC)c(C2=C(C)CN(C(C)(C)c3nc4ccccc4s3)C2=O)c1 | g/acre | = | 20 |
| CC1=C(c2ccccc2)C(=O)N(C(C)(C)c2nc3ccccc3s2)C1 | g/acre | = | 10 |
| CC1=C(c2ccccc2)C(=O)N(C(C)(C)c2nc3cc(C(=O)O)ccc3s2)C1 | g/acre | = | 20 |
| CC1=C(c2ccccc2)C(=O)N(C(C)(C)c2nc3ccccc3n2C)C1 | g/acre | = | 40 |
| CC1=C(c2ccccc2)C(=O)N(C(C)(C)c2nc3cc(C(F)(F)F)ccc3s2)C1 | g/acre | = | 20 |
| CC1=C(Oc2ccc(Cl)cc2)C(=O)N(C(C)(C)c2nc3ccccc3s2)C1 | g/acre | = | 40 |
| CC1=C(c2ccccc2)C(=O)N(C(C)(C)c2cccs2)C1 | g/acre | = | 20 |
| CC1=C(c2cccc3ccccc23)C(=O)N(C(C)(C)c2nc3ccccc3s2)C1 | g/acre | = | 80 |
| CC1=C(c2cccc([N+](=O)[O-])c2)C(=O)N(C(C)(C)c2nc3ccccc3s2)C1 | g/acre | = | 80 |
| CC1=C(c2cccc(C(F)(F)F)c2)C(=O)N(C(C)(C)c2nc3ccccc3s2)C1 | g/acre | = | 20 |
| CC1=C(c2ccccc2C(F)(F)F)C(=O)N(C(C)(C)c2nc3ccccc3s2)C1 | g/acre | = | 40 |
| CC1=C(c2ccccc2)C(=O)N(C(C)(C)c2nc3cccc(Cl)c3s2)C1 | g/acre | = | 20 |
| CC1=C(c2ccccc2)C(=O)N(C(C)(C)c2nc3cc(F)ccc3s2)C1 | g/acre | = | 10 |
| CC1=C(c2cccnc2)C(=O)N(C(C)(C)c2nc3ccccc3s2)C1 | g/acre | = | 10 |
